Target: UniProt:Q27686
Sequence (Q27686 whole entry): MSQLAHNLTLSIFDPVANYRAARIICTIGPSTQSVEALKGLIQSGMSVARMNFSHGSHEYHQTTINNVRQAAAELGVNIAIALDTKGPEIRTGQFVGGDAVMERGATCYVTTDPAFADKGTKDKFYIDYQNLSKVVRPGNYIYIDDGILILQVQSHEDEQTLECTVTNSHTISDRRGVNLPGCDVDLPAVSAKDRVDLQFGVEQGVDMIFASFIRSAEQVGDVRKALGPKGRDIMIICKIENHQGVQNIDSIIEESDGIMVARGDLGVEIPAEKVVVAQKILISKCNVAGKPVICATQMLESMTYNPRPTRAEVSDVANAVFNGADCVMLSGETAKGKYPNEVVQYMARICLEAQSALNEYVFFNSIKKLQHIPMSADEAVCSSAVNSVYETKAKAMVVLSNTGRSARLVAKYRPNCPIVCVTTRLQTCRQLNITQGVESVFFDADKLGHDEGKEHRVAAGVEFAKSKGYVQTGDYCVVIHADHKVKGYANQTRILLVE
pIC50: −log10 of the molar value.

chemSmiles	pIC50
O=C(O)c1ccc(SC2=NS(=O)(=O)c3ccccc32)cc1	5.54
